Molecular target: T1, hAMY3R (human, UniProt P30988)
T1 sequence 1: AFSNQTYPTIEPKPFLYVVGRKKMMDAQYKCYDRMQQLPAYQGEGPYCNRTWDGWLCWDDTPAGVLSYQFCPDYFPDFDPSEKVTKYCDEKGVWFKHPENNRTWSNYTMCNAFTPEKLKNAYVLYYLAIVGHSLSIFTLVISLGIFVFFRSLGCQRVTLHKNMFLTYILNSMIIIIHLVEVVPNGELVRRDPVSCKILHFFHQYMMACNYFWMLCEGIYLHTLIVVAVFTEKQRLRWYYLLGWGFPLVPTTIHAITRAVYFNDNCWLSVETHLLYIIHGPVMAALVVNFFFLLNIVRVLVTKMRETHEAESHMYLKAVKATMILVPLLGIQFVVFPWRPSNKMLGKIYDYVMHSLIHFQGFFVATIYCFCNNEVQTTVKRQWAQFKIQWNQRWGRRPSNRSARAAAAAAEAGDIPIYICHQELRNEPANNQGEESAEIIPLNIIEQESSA
T1 sequence 2: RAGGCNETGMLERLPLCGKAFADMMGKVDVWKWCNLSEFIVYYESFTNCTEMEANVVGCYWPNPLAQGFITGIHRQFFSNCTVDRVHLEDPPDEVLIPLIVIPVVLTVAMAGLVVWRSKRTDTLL
Assay: cell-based or functional assay
Numbered stars: 1 amine (or outer) side, 2 acyl side, 3 side chain; on linkers, the order of the positions; unused ones are H or OH. Bridge positions count the residues as written; N and C are the ends. Square brackets hold non-standard residues; d marks the D form. Ends that are not written are not given here. * marks the point of attachment. C20 diacid = O=C(O)CCCCCCCCCCCCCCCCCCC(=O)*; γGlu = O=C(O)[C@H](CCC(=O)[*:2])N[*:1]; Hyp = O=C(O)[C@@H]1C[C@@H](O)CN1
Entries annotated with measured hAMY3R EC50 (cAMP)
test readout: hAMY3R EC50 (cAMP) (nM)

binder	test readout	value reported
GCRFGTCTVQRLAHQIYQFTDKDKDNVAPRSKISPQT[Hyp]-NH2 (disulfide 2-7 (inferred); ends not checked) [SEQ ID NO: 168]	hAMY3R EC50 (cAMP)	0.062
{C20 diacid-γGlu}-KCNTATCTVQRLAEQIAQFTDKDKDNVAPPTNVGSNG[Hyp]-NH2 (disulfide 2-7 (inferred); not fully specified; ends not checked) [SEQ ID NO: 78]	hAMY3R EC50 (cAMP)	0.014
{C20 diacid-γGlu}-KCNTATCTVDRLAHQIAQFTDKDKDNVAPPTNVGSNG[Hyp]-NH2 (disulfide 2-7 (inferred); ends not checked) [SEQ ID NO: 112]	hAMY3R EC50 (cAMP)	0.021
